- subjectOfTest: PRDX6 (peroxiredoxin 6) (Homo sapiens, UniProt P30041)
- Construct: recombinant human PRDX6 (SinoBiological), immobilized on CM5 chip
- Sequence (P30041 2-224): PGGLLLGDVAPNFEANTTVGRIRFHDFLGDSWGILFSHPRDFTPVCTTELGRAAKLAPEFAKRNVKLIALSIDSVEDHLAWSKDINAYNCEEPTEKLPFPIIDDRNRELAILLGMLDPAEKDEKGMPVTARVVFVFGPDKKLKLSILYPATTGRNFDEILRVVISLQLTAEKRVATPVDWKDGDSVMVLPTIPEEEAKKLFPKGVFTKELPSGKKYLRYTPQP
- methodDescription: SPR (Biacore T200); supported by MST (Kd […]), CETSA, DARTS, biotin-probe pulldown
endpoint: Kd (µM)

compound	observed
O=c1cc(-c2ccc(O)cc2)oc2cc(O)cc(O)c12 [apigenin, 4′,5,7‐trihydroxyflavone]	0.237

Recorded values, source paper PMC12120719.
